- assayed_system: hERG (IKr) (Homo sapiens (Human), UniProt Q12809)
- Sequence (Q12809 whole entry): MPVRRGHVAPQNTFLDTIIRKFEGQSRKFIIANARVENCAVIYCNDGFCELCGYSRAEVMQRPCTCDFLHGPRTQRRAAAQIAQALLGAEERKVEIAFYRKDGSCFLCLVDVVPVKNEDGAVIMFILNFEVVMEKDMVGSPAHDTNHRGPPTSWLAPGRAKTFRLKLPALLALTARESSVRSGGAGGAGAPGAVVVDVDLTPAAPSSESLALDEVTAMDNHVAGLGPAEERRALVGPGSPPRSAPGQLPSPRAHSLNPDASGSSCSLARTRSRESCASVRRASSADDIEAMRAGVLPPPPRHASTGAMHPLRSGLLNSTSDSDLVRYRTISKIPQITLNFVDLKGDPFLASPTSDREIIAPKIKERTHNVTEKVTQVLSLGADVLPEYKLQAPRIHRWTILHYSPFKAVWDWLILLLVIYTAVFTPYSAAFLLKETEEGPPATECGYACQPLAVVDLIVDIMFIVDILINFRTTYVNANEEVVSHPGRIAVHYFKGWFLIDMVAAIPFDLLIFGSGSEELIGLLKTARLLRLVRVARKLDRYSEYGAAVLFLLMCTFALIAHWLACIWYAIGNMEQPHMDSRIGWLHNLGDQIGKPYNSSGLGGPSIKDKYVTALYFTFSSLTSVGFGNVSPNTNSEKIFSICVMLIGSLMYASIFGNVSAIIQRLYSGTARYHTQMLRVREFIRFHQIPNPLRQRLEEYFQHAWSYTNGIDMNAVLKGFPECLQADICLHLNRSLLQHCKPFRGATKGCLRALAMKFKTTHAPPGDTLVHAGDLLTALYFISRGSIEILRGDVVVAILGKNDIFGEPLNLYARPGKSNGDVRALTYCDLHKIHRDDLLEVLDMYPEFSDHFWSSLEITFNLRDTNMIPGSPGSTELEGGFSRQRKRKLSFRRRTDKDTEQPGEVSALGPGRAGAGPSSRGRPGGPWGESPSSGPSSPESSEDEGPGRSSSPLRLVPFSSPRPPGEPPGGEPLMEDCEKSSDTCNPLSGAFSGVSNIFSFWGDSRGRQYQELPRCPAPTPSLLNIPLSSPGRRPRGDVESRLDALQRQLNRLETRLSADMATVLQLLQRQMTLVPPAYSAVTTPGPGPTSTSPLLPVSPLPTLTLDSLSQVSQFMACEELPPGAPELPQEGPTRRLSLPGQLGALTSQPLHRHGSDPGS
- run_description: hERG test
- Assay type: cell-based
- assay_conditions: HEK293 cells expressing hERG channel, pH 7.4, HEK293 cell expressing hERG, compound concentration 5 μM, read-out: inhibitory percentage (IKr maximum tail current)
endpoint_name: inhibition at 10 min, 5 µM

Exercise: Recorded inhibition at 10 min, 5 µM for COCCOc1cnc(C(=O)Nc2cccc(C3(C)CC(=O)N(C)C(N)=N3)c2)cn1 (stereo not shown) , please?
Solution: 4.1%
